Data provenance: patent EP1203770A1

Assayed target: HIV-1 protease (Human immunodeficiency virus type 1 group M subtype B)
Construct: The protease (or proteinase), consisting of only 99 amino acids, is among the smallest enzymes known
Procedure summary: In vitro HIV protease inhibitory assay (HIV Protease FITC Assay)
Type: biochemical
Reported conditions: read-out: HIV-1 Protease % Inhib
Method: The HIV protease screening assay is based on a fluorescently labeled substrate which can be resolved from nonlabeled cleavage product using avidin-polystyrene particles, 0.7-0.9 µm. […] The labeled cleavage product is separated from the unreacted substrate via filtration and is read on the Idexx Screen Machine. The data are analyzed by appropriate computer algorithms to ascertain percent inhibition values.
Measurement kind: inhibition at 1.1 µM

>>> result_value("C=CC(C1=C(O)CC2(CCCCC2Cc2ccccc2)OC1=O)c1ccccc1 (stereo not drawn)")
"43.5%"
>>> result_value("CCCC1(CCc2ccccc2)CC(O)=C(C(/C=C/c2ccccc2)c2ccccc2)C(=O)O1 (stereo not drawn)")
"62.1%"
>>> result_value("CCC(C1=C(O)CC2(CCCCCCC2)OC1=O)c1ccccc1 (stereo not drawn)")
"13.2%"
>>> result_value("CCC(Cc1ccccc1)c1cc(O)c(C(c2cccc(NS(=O)(=O)c3ccc(Cl)cc3)c2)C2CC2)c(=O)o1 (stereo not drawn)")
"99.6%"
>>> result_value("CCCC1(CCc2ccccc2)CC(O)=C(C(CC)c2ccccc2)C(=O)O1 (stereo not drawn)")
"78.8%"

[in] Requested field: inhibition at 1.1 µM. Item: CCC(C1=C(O)CC(Cc2ccccc2)(c2ccccc2)OC1=O)c1ccccc1 (stereo not drawn)
[out] < 10%

[in] Please give the result for CCC(Cc1ccccc1)c1cc(O)c(C(c2cccc(NC(=O)Cc3ccncc3)c2)C2CC2)c(=O)o1 (stereo not drawn) too.
[out] 70.3%

[in] What would you report for CCC(Cc1ccccc1)c1cc(O)c(C(c2cccc(NC(=O)[C@H](Cc3c[nH]cn3)NC(=O)OC(C)(C)C)c2)C2CC2)c(=O)o1 (stereo partly drawn) ?
[out] 106%

[in] Also need CCCC1(CCc2ccccc2)CC(O)=C(C(CCc2ccccc2)c2ccccc2)C(=O)O1 (stereo not drawn) , thanks.
[out] 68.9%
